Test system: SK-MEL-2
Assay: NCI tumour cell line growth inhibition, 48 h
Activity calls are given as the source filed them. Cut-off read from the data, not from the text of the source: active = GI50 up to about 1.1 µM and inactive = higher.
Measure: GI50

Before answering, review these 2 worked examples.
{"Compound": "CC(C)=CCC/C(C)=C/CC/C(C)=C/CC/C(C)=C/CC/C(C)=C\\CC/C(C)=C/CC/C(C)=C/CC/C(C)=C/Cc1cc(O)ccc1O", "GI50": "0.682 µM (active)"}
{"Compound": "O=C(CC1(O)C(=O)Nc2ccccc21)c1ccc(O)cc1O (stereo unspecified)", "GI50": "> 100 µM (inactive)"}

List GI50 for every entry below, keeping the order given.
1. C[C@H](NC1=CC(=O)C(N[C@@H](C)[C@H](O)c2ccccc2)=CC1=O)[C@H](O)c1ccccc1
2. CC[C@]12C=CCN3CCC4(c5cc([C@@]6(C(=O)OC)CC7CN(CCc8c6[nH]c6ccccc86)C[C@@H]6CCC[C@H]76)c(OC)cc5N(C)C4[C@](O)(C(=O)OC)C1OC(C)=O)C32 (stereo partly specified)
3. COc1ccc(/C(Cl)=C(\c2ccc(OCCN(C)C)cc2)c2ccc(OC(=O)C(C)(C)C)cc2)cc1
4. O=C(Nc1cccc(Cl)c1)C(=O)C(C(=O)c1ccc2ccccc2c1)C1OC(=O)c2ccccc21 (stereo unspecified)

Solution:
1. > 100 µM (inactive)
2. 0.179 µM (active)
3. 15.9 µM (inactive)
4. 14.6 µM (inactive)

List GI50 for every entry below, keeping the order given.
1. CN(N)C(=O)NCCCl
2. CCOC(=O)c1cc(C2CCN(c3ccccc3)C2=O)c(C(=O)/C=C(/C)O)[nH]1 (stereo unspecified)
3. CC(Oc1ccccc1Cl)C(=O)NN1C(=O)CC(=O)NC1=S (stereo unspecified)
4. O=C(/C=C/c1ccc2c(c1)OCO2)CC(=O)C(=O)c1c[nH]c2ccccc12
5. Cc1ccc(S(=O)(=O)OCCn2cnc3nc(NC(=O)c4ccccc4)[nH]c(=O)c32)cc1
6. COC(=O)C1=C(C(=O)OC)C(C(=O)c2ccccc2)N2N=C(c3ccc(Cl)cc3)C=CC12 (stereo unspecified)

Solution:
1. > 100 µM (inactive)
2. > 100 µM (inactive)
3. 93.5 µM (inactive)
4. > 100 µM (inactive)
5. > 100 µM (inactive)
6. > 100 µM (inactive)

List GI50 for every entry below, keeping the order given.
1. O=C1c2ccccc2C(=O)N1C/C=C/CO
2. Cc1ccc(S(=O)(=O)N2CCCCC2CCO)cc1 (stereo unspecified)
3. Cc1nc2cc(C(F)(F)F)ccc2[nH]c1=O
4. COC(=S)OC1CC(n2cnc3c(=O)[nH]cnc32)OC1CO[Si](C)(C)C(C)(C)C (stereo unspecified)

Solution:
1. > 100 µM (inactive)
2. > 100 µM (inactive)
3. > 100 µM (inactive)
4. > 100 µM (inactive)

List GI50 for every entry below, keeping the order given.
1. CCn1c(=O)c2ccccc2n2c(=O)c3cc4ccccc4cc3nc12
2. CCN(CC)C(=O)Cc1[nH][nH]c(=O)c1C(=O)N(CC)CC
3. COc1ccc(N2C(Cl)C(=O)C2c2c[nH]c3ccccc23)cc1 (stereo unspecified)
4. O=C(O)c1nn(-c2ccc(Cl)cc2)c2c1C(=O)c1ccccc1C2=O
5. O=c1c2c(nc3[nH]ccn13)CCCC2

Solution:
1: > 100 µM (inactive); 2: > 100 µM (inactive); 3: > 100 µM (inactive); 4: > 100 µM (inactive); 5: > 10 µM (inactive)
